# Tested on: Plutella xylostella
# Protocol Text: whole plant or invertebrate
# Type: in vivo
# Condition Description: 500 ppm; 2nd-instar larvae, leaf immersion feeding
Readout Name: Plutella xylostella Mortality (%)
// return numeric value only (unit: %, not printed)

Examples from the recorded data:
- Molecule: "COC(=O)C1(CC(=O)OCC(F)(F)F)Nc2c([S+]([O-])C(F)(F)F)c(C#N)nn2-c2cc(C(F)(F)F)cc(Cl)c21 (stereo not drawn)"
  Plutella xylostella Mortality (%): 100
- Molecule: "N#Cc1nn2c(c1[S+]([O-])C(F)(F)F)NC(C(=O)C(F)(F)F)c1cc(C(F)(F)F)cc(Cl)c1-2 (stereo not drawn)"
  Plutella xylostella Mortality (%): 99
- Molecule: "CNC1(CC#N)Nc2c([S+]([O-])C(F)(F)F)c(C#N)nn2-c2cncc(Cl)c21 (stereo not drawn)"
  Plutella xylostella Mortality (%): 89
- Molecule: "CNC(=O)C1Nc2c([S+]([O-])C(F)(F)F)c(C(F)(F)F)nn2-c2cncc(Cl)c21 (stereo not drawn)"
  Plutella xylostella Mortality (%): 91
- Molecule: "N#CCC1(Cl)Nc2c([S+]([O-])C(F)(F)F)c(C#N)nn2-c2c(Cl)cc(C(F)(F)F)cc21 (stereo not drawn)"
  Plutella xylostella Mortality (%): 96
- Molecule: "COC(=O)CC1(C(=O)OC)Nc2c([S+](C)[O-])c(C#N)nn2-c2c(Cl)cc(C(F)(F)F)cc21 (stereo not drawn)"
  Plutella xylostella Mortality (%): 82
- Molecule: "CC(C)C1Nc2c(OC(F)(F)F)c(C#N)nn2-c2c(Cl)cc(C(F)(F)F)cc21 (stereo not drawn)"
  Plutella xylostella Mortality (%): 90
- Molecule: "CCOC(=O)C1(CC(=O)OC)Nc2c([S+]([O-])C(F)(F)F)c(C#N)nn2-c2c(C(F)(F)F)ccc(Cl)c21 (stereo not drawn)"
  Plutella xylostella Mortality (%): 100
- Molecule: "COC(=O)CC1(C(=O)OC)Nc2c([S+]([O-])C(F)(F)F)c(C#N)nn2-c2c1ccc(Cl)c2C(F)(F)F (stereo not drawn)"
  Plutella xylostella Mortality (%): 100
- Molecule: "COC(=O)C1(CC(N)=O)Nc2c([S+]([O-])C(F)(F)F)c(C#N)nn2-c2c(Cl)cc(C(F)(F)F)cc21 (stereo not drawn)"
  Plutella xylostella Mortality (%): 100

Query: Consider the molecule shown here: CC(=O)C1(CC(=O)C(F)(F)F)Nc2c([S+]([O-])C(F)(F)F)c(C#N)nn2-c2c(Cl)cc(C(F)(F)F)cc21 (stereo not drawn) What is its recorded Plutella xylostella Mortality (%)?
Reply: 100

Query: Could you share which Plutella xylostella Mortality (%) value was measured for COC(=O)CC1(C(=O)OC)Nc2c([S+]([O-])C(F)(F)F)c(C#N)nn2-c2cc(C(F)(F)F)cc(Cl)c21 (racemic) ?
Reply: 100

Query: I have this molecule here, N#Cc1nn2c(c1OC(F)(F)F)NC(CC(=O)C(F)(F)F)c1c(Cl)cncc1-2 (stereo not drawn) , and I need its recorded Plutella xylostella Mortality (%).
Reply: 100
